Assay: solvent given as SMILES
Conditions: in CCCCCC
endpoint name: emission maximum
Report the figure along with its unit, number first.

Item: `CC1=[N+]2C(=C(c3ccc(-c4c5ccccc5c(-c5ccccc5)c5ccccc45)cc3)c3ccc(C)n3[B-]2(F)F)C=C1` | emission maximum: 526 nm

Item: `CCC1(CC)c2cc(B(c3c(C)cc(C)cc3C)c3c(C)cc(C)cc3C)ccc2-c2c1c1c(c3c2C(CC)(CC)c2cc(N(c4ccccc4)c4ccccc4)ccc2-3)C(CC)(CC)c2cc(B(c3c(C)cc(C)cc3C)c3c(C)cc(C)cc3C)ccc2-1` | emission maximum: 421 nm

Notebook: `CCC1(CC)c2cc(/C=C/c3ccc(/C=C/c4ccc5c(c4)C(CC)(CC)c4cc(N6c7ccccc7Sc7ccccc76)ccc4-5)cc3)ccc2-c2ccc(N3c4ccccc4Sc4ccccc43)cc21` , emission maximum read as 455 nm

emission maximum reported for this compound `c1cc2ccc3cccc4c(-c5cc(-c6nccs6)nc(-c6nccs6)c5)cc(c1)c2c34` : 392 nm

Field emission maximum (entry `COc1ccc(C#Cc2c3ccccc3c3n2[B-](F)(F)[N+]2=C(C)C=C(C)C2=C3)cc1` ) reads 620 nm

Entry `c1ccc(-c2cc(-c3ccc(N(c4ccccc4)c4ccccc4)cc3)cc(-c3ccccc3)n2)cc1` ; emission maximum = 393 nm

The value of emission maximum measured for the compound `F[B-]1(F)n2c(ccc2-c2ccccc2)C(C(F)(F)F)=C2C=CC(c3ccccc3)=[N+]21` turned out to be 622 nm

// recorded emission maximum for `CN(C)c1ccc(/C=C/C=C/c2nc3ccccc3o2)cc1` : 474 nm

Others:
For `c1ccc(-c2ccc(-c3ccc(N(c4ccccc4)c4ccccc4)cc3)c3nsnc23)cc1` the compound record lists emission maximum as 526 nm

Form: compound = CCN1C(=O)C(C2C(=O)c3c4ccccc4cc4cc5ccccc5c2c34)SC1=S (stereo not given) ; emission maximum = 539 nm

Value of measured emission maximum for the entry `CCCCCCCCCCCCOc1cc(/C=C/c2ccc3c(c2)C(CC)(CC)c2cc(N4c5ccccc5Sc5ccccc54)ccc2-3)c(OCCCCCCCCCCCC)cc1/C=C/c1ccc2c(c1)C(CC)(CC)c1cc(N3c4ccccc4Sc4ccccc43)ccc1-2` : 477 nm

Noted for `CCCCCCCCC1(CCCCCCCC)c2cc(C#CC#Cc3ccc(N(c4ccccc4)c4ccccc4)cc3)ccc2-c2ccc(C=O)cc21` : its emission maximum reads 422 nm

###

Test: solvent given as SMILES
Settings: in ClC(Cl)Cl
endpoint name: emission maximum (nm)
Answer format: numeric, nm implied, no suffix.

# molecule `COc1ccc2c(c1)c(C#N)c(C#N)c1cc(OC)ccc12` ; its emission maximum = 440

Looking up `CCCCCCCCC1(CCCCCCCC)c2cc3c(cc2-c2sc(-c4ccc(/C=C5\SC(SCC)=NC5=O)c5nsnc45)cc21)C(CCCCCCCC)(CCCCCCCC)c1cc(-c2ccc(/C=C4\SC(SCC)=NC4=O)c4nsnc24)sc1-3` , I found its emission maximum recorded as 718

Per the records, this molecule ( `CCCCCCCCC1(CCCCCCCC)c2cc3c(cc2-c2sc(-c4ccc(/C=C5\SC(N6CCCCC6)=NC5=O)c5nsnc45)cc21)C(CCCCCCCC)(CCCCCCCC)c1cc(-c2ccc(/C=C4\SC(N5CCCCC5)=NC4=O)c4nsnc24)sc1-3` ) has emission maximum equal to 675

// recorded emission maximum for `F[B-]1(F)n2c(cc3oc4ccccc4c32)C(c2ccc(I)cc2)=C2C=c3oc4ccccc4c3=[N+]21` : 647

From: the Deep4Chem optical property database
